# Test system: biotinyl-Ile-oxazolone
# protocolSummary: self-aminoacylation, catalytic enhancement (BIO) (fold over background); higher = more active; k-Seq, kA / k0A0; sequences stand for … in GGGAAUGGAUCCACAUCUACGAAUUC…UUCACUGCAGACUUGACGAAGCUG
This sample holds only a part of the variants without activity.
recordedEndpoint: self-aminoacylation
Give bare numbers.

Some sequences with known self-aminoacylation results, for comparison:
// sample AUUCACCUAGGUCUUCGGCUG [Fam2.2 aminoacylation ribozyme variant] , its self-aminoacylation was 2.12

According to the records, this sequence CUACUUAAAACAAGCGGUCUG [Fam1A.1 aminoacylation ribozyme variant] displays self-aminoacylation of 1.04

Looking up CUACACUUCAAGCACUCGGUC [Fam1B.1 aminoacylation ribozyme variant] , I found its self-aminoacylation recorded as 0.886

Looking up AUGACCCUGGUCAUCUAGUGA [Fam2.1 aminoacylation ribozyme variant] , I found its self-aminoacylation recorded as 3.75

Quick note, self-aminoacylation for ACGUUUGCUAAUAGUGGCAAG [Fam3.1 aminoacylation ribozyme variant] landed at 0.853

Answer for every listed entry: what is its self-aminoacylation? The entries follow.
1. AGUCACCUAGGUCAUCGGGUA [Fam2.2 aminoacylation ribozyme variant]
2. AUUAUCCUGGUCAUCGAGUAA [Fam2.1 aminoacylation ribozyme variant]
3. AUUCCCCUGGUCAUCGAGUAA [Fam2.1 aminoacylation ribozyme variant]
4. CUACUUAAGACAAUCGGUCUG [Fam1A.1 aminoacylation ribozyme variant]

Outgoing:
6.85
1.43
1.55
0.775
